# Measured On: T1, Extracellular domain (ECD) of the canine IL-4 receptor alpha-AviTag-His Tag (canine)
# T1 construct: expressed in CHO cells; also called canine IL-4RA; canine IL4Ra
# T1 chain: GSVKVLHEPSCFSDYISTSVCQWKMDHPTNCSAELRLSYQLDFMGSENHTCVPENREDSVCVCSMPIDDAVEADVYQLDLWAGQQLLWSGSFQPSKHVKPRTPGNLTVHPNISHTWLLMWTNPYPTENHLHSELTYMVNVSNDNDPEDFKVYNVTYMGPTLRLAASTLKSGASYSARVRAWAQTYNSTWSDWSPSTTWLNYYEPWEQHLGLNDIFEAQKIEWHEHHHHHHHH
# Assay Remarks: SPR, IgG captured via anti-dog Fc;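 further: biacore T200 SPR with antibodies captured on CM5 chip bearing anti-dog Fc, 120 s association then 600 s dissociation, double-referenced sensorgrams fitted with 1:1 binding model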
kon below 400000 M⁻¹ s⁻¹ gives FALSE; kon at or above it gives TRUE.

# Binder, Qualitative Label
records = [
    ("GFmix_PTH-H + FJP10A09-L (antibody, V domains shown) VH: EVQLVESGGDLVKPGGSLRLSCVASGFPFRDYAMTWVRQAPGKGLQWLSLISGSGGKTYYADAVKGRFTISRDNAKNTLYLQMNSLRAEDTAVYYCAVDRLTKTIRPQYYGLWHWGQGTLVTVSS VL: DIVMTQTPLSLSVSPGETASISCRSSQSLTYSIGYNYLDWYMQKPGQSPQGLIYLGSKRASGVSDRFSGSGSGADFTLKISRVEADDAGVYYCMQGLHSPLSFGQGTKLEIKR", "TRUE"),
    ("GFmix_PTH-H + GFmix_THS-L (antibody, V domains shown) VH: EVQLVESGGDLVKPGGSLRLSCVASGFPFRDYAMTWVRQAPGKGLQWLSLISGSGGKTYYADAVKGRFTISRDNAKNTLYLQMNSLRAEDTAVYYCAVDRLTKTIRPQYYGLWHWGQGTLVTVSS VL: DIVMTQTPLSLSVSPGETASISCRSSQSLTYSIGYNYLDWYMQKPGQSPQGLIYLGSKRASGVSDRFSGSGSGADFTLKISRVEADDAGVYYCMQGLHSPLGFGQGTKLEIKR", "TRUE"),
    ("TB640_005 (antibody, V domains shown, caninized IgG; also called TB640_005-H + TB640_005-L) VH: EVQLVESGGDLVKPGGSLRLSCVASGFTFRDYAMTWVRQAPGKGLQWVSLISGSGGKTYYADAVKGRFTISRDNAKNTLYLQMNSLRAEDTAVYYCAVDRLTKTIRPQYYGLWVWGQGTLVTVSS VL: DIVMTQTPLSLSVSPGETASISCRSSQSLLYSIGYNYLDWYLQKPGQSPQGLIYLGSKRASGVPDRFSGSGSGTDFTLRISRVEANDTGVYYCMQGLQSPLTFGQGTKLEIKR", "FALSE"),
    ("FJP05A03-H + FJP10A09-L (antibody, V domains shown) VH: EVQLVESGGDLVKPGGSLRLSCVASGLPFRDYAMAWVRQAPGKGLQWLSLISGSGGKTYYADAVKGRFTISRDNAKNTLYLQMNSLRAEDTAVYYCAVDRLTKTIRPQYYGLWVWGQGTLVTVSS VL: DIVMTQTPLSLSVSPGETASISCRSSQSLTYSIGYNYLDWYMQKPGQSPQGLIYLGSKRASGVSDRFSGSGSGADFTLKISRVEADDAGVYYCMQGLHSPLSFGQGTKLEIKR", "TRUE"),
]

Values were extracted from patent US20250188176A1.
